B1: LINE1-full (parent)
chain: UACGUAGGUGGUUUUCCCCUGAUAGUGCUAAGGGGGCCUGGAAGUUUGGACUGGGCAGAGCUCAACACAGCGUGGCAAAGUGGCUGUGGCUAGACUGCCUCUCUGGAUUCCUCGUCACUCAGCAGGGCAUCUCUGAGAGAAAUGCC

Variants of: B1
Assay: self-cleavage, relative activity (ratio to wild type); higher = more cleavage; in vitro, sequencing; the parent is a self-cleaving ribozyme
attribute.measured: self-cleavage

Reference set (5 entries):
U134C A136G
1.75
G35U U104A
1.31
U73A U96C
0.1
A78G A140U
1.38
A43U U115A
1.6

// for each variant below, give its self-cleavage
1. A24G G53A
2. U15C G135U
3. U12G A22G
4. G25C U119C

[1.8, 1.21, 1.04, 1.58]

// for each variant below, give its self-cleavage
1. A22U A117G
2. G8A C113A
3. A31C A140G
4. A121G U132A

0.65
1.31
1.18
1.86

// for each variant below, give its self-cleavage
1. U115A A138G
2. U15C G32U
3. A31G U45C
4. A64C U108C
5. C28U A78G
6. A50G G88A
7. U47C G82A
8. U39A U96G

[1.29, 1.15, 1.07, 0.39, 1, 0.06, 2.09, 0.14]

// for each variant below, give its self-cleavage
1. A117U U132A
2. U81G A124U
3. C113A
4. U85C C146A
5. C18U U26C
6. U47G U104C

1.32
1.75
1.01
0.48
2.16
1.48

// for each variant below, give its self-cleavage
1. G8U
2. A30G G49U

1. 1.39
2. 0.89

// for each variant below, give its self-cleavage
1. G88C A140G
2. A77U C131U

1: 0; 2: 1.19

// for each variant below, give its self-cleavage
1. G4A C133A
2. U73A G137A
3. U47C A94G
4. C18U G25A
5. U108C G125A

[0.79, 1.7, 0.51, 0.39, 1.22]

// for each variant below, give its self-cleavage
1. A78G U91C
2. U96A U100A

1: 0.29; 2: 0.07
